Taken from patent US11304929B2.

TARGET DESC: UniProt O43175
Sequence (O43175 2-533 limits assumed): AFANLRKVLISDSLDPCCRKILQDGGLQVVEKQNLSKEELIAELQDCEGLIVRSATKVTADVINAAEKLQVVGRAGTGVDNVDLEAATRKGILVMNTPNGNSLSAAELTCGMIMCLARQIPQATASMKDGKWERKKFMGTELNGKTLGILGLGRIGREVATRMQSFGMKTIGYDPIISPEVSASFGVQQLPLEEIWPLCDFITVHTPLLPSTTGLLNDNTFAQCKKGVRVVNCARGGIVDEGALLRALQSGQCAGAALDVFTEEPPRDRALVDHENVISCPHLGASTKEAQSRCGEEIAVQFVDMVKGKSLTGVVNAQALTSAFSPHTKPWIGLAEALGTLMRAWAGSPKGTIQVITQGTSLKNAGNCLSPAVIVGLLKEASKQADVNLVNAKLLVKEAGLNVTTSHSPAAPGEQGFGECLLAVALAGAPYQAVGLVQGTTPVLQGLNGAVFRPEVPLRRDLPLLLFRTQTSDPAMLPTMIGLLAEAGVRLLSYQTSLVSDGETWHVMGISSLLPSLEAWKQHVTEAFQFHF
PROCEDURE TEXT: 3-Phosphoglycerate Dehydrogenase (PHGDH) Fluorescence Intensity Assay, run at two NAD/3-PG ratios: PHGDH_HIGH_NAD/3-PG (250 μM NAD/500 μM 3-PG) and PHGDH_500_NAD/3-PG (500 μM NAD/500 μM 3-PG)
Format: biochemical
APPLIED CONDITIONS: 500 μM NAD/500 μM 3-PG; read-out: IC50 (PHGDH_500_NAD/3-PG)
Listing of recorded pIC50 by entry.
Please keep in mind that pIC50 is minus log10 of the molar concentration; only the number is needed.

Solved cases below.
Cc1cc(Cl)c2cc(C(=O)N[C@H](CO)c3ccc([S+]([O-])CC(=O)O)cc3)n(C)c2c1 (stereo partly drawn); 7.96
COC(=O)C[S+]([O-])c1ccc([C@@H](CO)NC(=O)c2cc3c(Cl)c(Cl)c(C)cc3n2C)cc1 (stereo partly drawn); 6.71
Cc1cc(Cl)c2cc(C(=O)N[C@H](C)c3ccc(S(=O)(=O)CC(=O)O)cc3)n(C)c2c1C; 7.66
Cc1cc2c(cc(C(=O)N[C@H](C)c3ccc(S(=O)(=O)CC(=O)O)cc3)n2C)c(Cl)c1Cl; 8.05

Let me check: `Cc1cc2c(cc(C(=O)N[C@H](C)c3ccc(S(=O)(=O)CC(=O)O)cc3)n2C)c(Cl)c1F` , system UniProt O43175, measured pIC50 is 8.15

Let me check: Cc1cc(Cl)c2cc(C(=O)N[C@H](C)c3ccc([S+]([O-])CC(=O)O)cc3)n(C)c2c1 (stereo partly drawn) , system UniProt O43175, measured pIC50 is 7.74

Let me check: `CN1CCN(c2cc(Cl)c3cc(C(=O)N[C@H](CO)c4ccc(S(=O)(=O)CC(=O)O)cc4)n(C)c3c2)CC1` , system UniProt O43175, measured pIC50 is 6.84

Let me check: `Cc1cc2c(cc(C(=O)N[C@H](CO)c3ccc(S(=O)(=O)CC(=O)OCCO)cc3)n2C)c(Cl)c1Cl` , system UniProt O43175, measured pIC50 is 6.97

Let me check: `CC(=O)N1CCC(C(=O)O)(S(=O)(=O)c2ccc([C@@H](C)NC(=O)c3cc4c(Cl)c(Cl)c(C)cc4n3C)cc2)CC1` , system UniProt O43175, measured pIC50 is 7.68

Let me check: `C[C@@H](NC(=O)c1cc2c(Cl)cc(-c3cnn(C)c3)cc2n1C)c1ccc(S(=O)(=O)CC(=O)O)cc1` , system UniProt O43175, measured pIC50 is 7.54

Let me check: `Cc1cc(Cl)c2cc(C(=O)N[C@H](C)c3ccc([S@+]([O-])CC(=O)O)cc3)n(C)c2c1` , system UniProt O43175, measured pIC50 is 7.55

Let me check: Cc1cc2c(cc(C(=O)N[C@H](C)c3ccc(S(=O)(=O)C4CCOC4=O)cc3)n2C)c(F)c1F (stereo partly drawn) , system UniProt O43175, measured pIC50 is 6.92
